Assay: pH of 1 % solution in water
Format: physicochemical
READOUT KIND: pH 1 % in water
Please give only the number in your answer, with no unit.

Recorded results for 3 compounds are shown here.
INSERT INTO measurements (compound, readout_kind, value) VALUES
  ('O=C(O)CCCC[C@@H]1CCSS1 [Ex. 1, Trometamol (R) α-lipoate, reference compound]', 'pH 1 % in water', 6.6),
  ('O=C(O)CCCC[C@@H]1CCSS1 [Ex. 8, Piperazine (R) α-lipoato (2:1)]', 'pH 1 % in water', 5.5),
  ('O=C(O)CCCC[C@@H]1CCSS1 [Ex. 7]', 'pH 1 % in water', 5.2);

O=C(O)CCCC[C@@H]1CCSS1 [Ex. 12, Piperazine (R) α-lipoate (1:1)] yielded pH 1 % in water of 7.2

O=C(O)CCCC[C@@H]1CCSS1 [Ex. 6, Cystamine (R) α-lipoate] yielded pH 1 % in water of 6.6
